- measuredTarget: Glycine receptor subunit alpha-1 (Rattus norvegicus, UniProt P07727)
- Sequence (P07727 whole entry): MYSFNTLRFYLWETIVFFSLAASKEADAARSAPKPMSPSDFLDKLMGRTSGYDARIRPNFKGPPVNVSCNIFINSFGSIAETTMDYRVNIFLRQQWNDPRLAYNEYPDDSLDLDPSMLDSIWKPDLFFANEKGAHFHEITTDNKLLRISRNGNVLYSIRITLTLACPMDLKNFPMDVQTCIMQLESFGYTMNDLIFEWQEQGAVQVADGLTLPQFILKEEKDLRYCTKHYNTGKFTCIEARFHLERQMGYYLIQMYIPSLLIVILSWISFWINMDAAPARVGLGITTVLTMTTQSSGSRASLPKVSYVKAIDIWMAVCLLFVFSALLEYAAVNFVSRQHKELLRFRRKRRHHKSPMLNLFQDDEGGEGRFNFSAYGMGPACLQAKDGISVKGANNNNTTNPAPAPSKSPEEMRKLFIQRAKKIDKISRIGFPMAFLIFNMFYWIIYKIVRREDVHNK
- procedureText: Displacement of [3H]strychnine from GlyR low affinity site in Wistar rat spinal cord by scintillation spectrometry
Recorded log10 IC50, one value per entry.
assayMetric: log10 IC50 (log10 of the value in µM)

| smilesEntry | measuredTarget | experimentalResult |
| --- | --- | --- |
| CN1[C@@H]2CC[C@H]1C[C@@H](OC(=O)c1ccco1)C2 | Glycine receptor subunit alpha-1 (Rattus norvegicus, UniProt P07727) | 1.00 |
| Cn1c(C(=O)O[C@H]2C[C@H]3CC[C@@H](C2)N3)cc2ccccc21 | Glycine receptor subunit alpha-1 (Rattus norvegicus, UniProt P07727) | -0.90 |
| CN1[C@@H]2CC[C@H]1C[C@@H](OC(=O)c1cc3ccccc3n1C)C2 | Glycine receptor subunit alpha-1 (Rattus norvegicus, UniProt P07727) | 0.38 |
| CN1[C@@H]2CC[C@H]1C[C@H](OC(=O)c1cc3ccccc3[nH]1)C2 | Glycine receptor subunit alpha-1 (Rattus norvegicus, UniProt P07727) | 0.90 |
| CN1[C@@H]2CC[C@H]1C[C@@H](OC(=O)c1cnc3ccccc3c1)C2 | Glycine receptor subunit alpha-1 (Rattus norvegicus, UniProt P07727) | 0.74 |
| CN1[C@@H]2CC[C@H]1C[C@@H](OC(=O)c1cccnc1)C2 | Glycine receptor subunit alpha-1 (Rattus norvegicus, UniProt P07727) | 1.36 |
| CN1[C@@H]2CC[C@H]1C[C@@H](OC(=O)c1cccs1)C2 | Glycine receptor subunit alpha-1 (Rattus norvegicus, UniProt P07727) | 0.63 |
| CN1[C@@H]2CC[C@H]1C[C@@H](OC(=O)c1ccc[nH]1)C2 | Glycine receptor subunit alpha-1 (Rattus norvegicus, UniProt P07727) | 1.32 |

* * *

- measuredTarget: Glycine receptor subunit alpha-1 (Rattus norvegicus)
- procedureText: Displacement of [3H]strychnine from GlyR high affinity site in Wistar rat spinal cord by scintillation spectrometry

| smilesEntry | measuredTarget | IC50 [nM] |
| --- | --- | --- |
| CN1[C@@H]2CC[C@H]1C[C@@H](OC(=O)c1ccc[nH]1)C2 | Glycine receptor subunit alpha-1 (Rattus norvegicus) | 33.9 |
| CN1[C@@H]2CC[C@H]1C[C@@H](OC(=O)c1cccs1)C2 | Glycine receptor subunit alpha-1 (Rattus norvegicus) | 89.1 |
| CN1[C@@H]2CC[C@H]1C[C@@H](OC(=O)c1ccco1)C2 | Glycine receptor subunit alpha-1 (Rattus norvegicus) | 50.1 |
| Cn1c(C(=O)O[C@H]2C[C@H]3CC[C@@H](C2)N3)cc2ccccc21 | Glycine receptor subunit alpha-1 (Rattus norvegicus) | 11.5 |
| CN1[C@@H]2CC[C@H]1C[C@@H](OC(=O)c1cc3ccccc3n1C)C2 | Glycine receptor subunit alpha-1 (Rattus norvegicus) | 10.2 |
| CN1[C@@H]2CC[C@H]1C[C@@H](OC(=O)c1cccnc1)C2 | Glycine receptor subunit alpha-1 (Rattus norvegicus) | 58.9 |
| CN1[C@@H]2CC[C@H]1C[C@H](OC(=O)c1cc3ccccc3[nH]1)C2 | Glycine receptor subunit alpha-1 (Rattus norvegicus) | 60.3 |
| CN1[C@@H]2CC[C@H]1C[C@@H](OC(=O)c1cnc3ccccc3c1)C2 | Glycine receptor subunit alpha-1 (Rattus norvegicus) | 72.4 |

* * *

- measuredTarget: 5-hydroxytryptamine receptor 3A (Rattus norvegicus, UniProt P35563)
- Sequence (P35563 whole entry): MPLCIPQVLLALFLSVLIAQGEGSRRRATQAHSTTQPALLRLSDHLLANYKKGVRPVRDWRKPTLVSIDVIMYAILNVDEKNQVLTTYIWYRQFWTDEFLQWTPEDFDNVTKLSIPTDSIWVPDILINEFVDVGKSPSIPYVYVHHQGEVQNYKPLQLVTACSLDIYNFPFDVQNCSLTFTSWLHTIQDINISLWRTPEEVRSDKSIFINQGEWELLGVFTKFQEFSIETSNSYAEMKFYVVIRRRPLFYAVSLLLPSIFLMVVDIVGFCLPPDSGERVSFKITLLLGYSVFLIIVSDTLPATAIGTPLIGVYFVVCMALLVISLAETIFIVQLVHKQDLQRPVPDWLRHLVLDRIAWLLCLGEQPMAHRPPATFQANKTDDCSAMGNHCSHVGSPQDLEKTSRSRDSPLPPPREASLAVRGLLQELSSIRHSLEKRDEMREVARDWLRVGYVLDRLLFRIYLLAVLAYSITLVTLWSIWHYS
pIC50: −log10 of the molar value.
Recorded pIC50, one value per entry.
assayMetric: pIC50

| smilesEntry | assayMetric | experimentalResult |
| --- | --- | --- |
| CN1[C@@H]2CC[C@H]1C[C@@H](OC(=O)c1cc3ccccc3n1C)C2 | pIC50 | 7.74 |
| Cn1c(C(=O)O[C@H]2C[C@H]3CC[C@@H](C2)N3)cc2ccccc21 | pIC50 | 7.60 |
| O=C(O[C@H]1C[C@H]2CC[C@@H](C1)N2)c1cc2ccccc2[nH]1 | pIC50 | 7.49 |
